This section presents binders with their documented koff values.
# target-under-test: T1, human IL-33 (mm2) (human, UniProt O95760 112-270)
# T1 construct: Variant in which all four cysteine residues are serine; the entry carries an N-terminal Met and a C-terminal His6; Biotinylated in some assays; also called hIL-33 (mm2); huIL-33 (mm2)
# T1 chain: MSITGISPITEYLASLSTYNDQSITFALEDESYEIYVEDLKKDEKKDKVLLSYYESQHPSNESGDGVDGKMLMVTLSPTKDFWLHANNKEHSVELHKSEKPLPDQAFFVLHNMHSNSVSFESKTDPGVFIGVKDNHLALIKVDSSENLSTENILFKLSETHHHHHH
# method: BIAcore, IgG captured by anti-human Fc, 125 nM IL-33 (mm2)
observed-property: koff (s⁻¹)

• 7E8H/9B3K (antibody, human IgG1, kappa, V domains shown) VH: EVQLVETGGGLVQPGRSLKLSCKTSGFTFSSYWMYWIRQAPGKGLEWVSSITPNGGNTYYPDSVKGRFTISRDNAENTIYLQMSSLRSEDTATYFCAKGHYYYTSYSLGYWGQGSLVTVSS VL: DIQMTQSPSVLSASVGDRVTLSCKASHNINKHLDWYQQKVGEAPKLLIYFTNNLQTGIPSRFSGSGSGTDYTLTISSLQPEDVATYFCFQYNSGWTFGQGTKVEIKR = 0.000385
• 9B3-2B (antibody, human IgG1, kappa, V domains shown) VH: EVQLVETGGGLVQPGRSLKLSCVASGFTFSNYWMYWIRQAPGMGLEWVSSINNDGGNTYYLDSVKGRFTISRNNAENTVYLQMNSLRSEDTATYYCVKGHYSYSSYSIDYWGQGTLVTVSS VL: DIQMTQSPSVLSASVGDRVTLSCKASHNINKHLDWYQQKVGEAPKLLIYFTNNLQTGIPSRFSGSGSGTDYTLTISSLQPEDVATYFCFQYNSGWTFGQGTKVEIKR = 0.000506
• 9B3-31v2 (antibody, human IgG1, kappa, V domains shown) VH: EVQLVETGGGLVQPGRSLKLSCVASGFTFSNYWMYWIRQAPGMGLEWVSSINNDGGNTYYLDSVKGRFTISRNNAENTVYLQMNSLRSEDTATYYCAKGHYYYSSYSFAFWGQGTLVTVSS VL: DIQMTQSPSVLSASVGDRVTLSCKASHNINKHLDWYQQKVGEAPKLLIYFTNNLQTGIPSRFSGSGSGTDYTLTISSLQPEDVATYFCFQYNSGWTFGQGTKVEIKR = 0.000706

This collection of values is drawn from patent US20180037644A1.
